system under test: Hypoxia-inducible factor 1-alpha (Homo sapiens)
method description: activators of HIF1alpha nuclear accumulation, confirmation, imaging, fluorescence, U2OS GFP-HIF1alpha (AID 434951)
conditions used: U2OS GFP-HIF1alpha nuclear intensity, high-content imaging
Activity calls are given as the source filed them.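 The calls were made as follows: active = a fitted half-maximal concentration EC50 for the rise in nuclear signal no higher than ten times the top dose tested; inconclusive = flat fit with activity between 30% and 70%, or unusable fit; inactive = EC50 beyond ten times the top dose.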
# valid calls are active, inactive; nothing else

Reference set (3 entries):
[[record]]
compound = "CN(C)/N=C/C=C1\\CCC/C(=C/c2cccs2)C1=O"
category = "inactive"

[[record]]
compound = "COc1ccc(C(=O)Nc2ccc(C(=O)NCCc3ccc(OC)c(OC)c3)cc2)cc1"
category = "inactive"

[[record]]
compound = "Cc1ccc(C(=O)Nc2c3c(nn2C(C)(C)C)CS(=O)(=O)C3)cc1C"
category = "inactive"


Dear all, I need the recorded test outcome for Cn1ncc(Br)c1C(=O)OCC(=O)Nc1nc(-c2ccccc2)cs1 , thank you.
inactive

Dear all, I need the recorded test outcome for CCn1nc(NS(=O)(=O)c2ccc(NC(C)=O)cc2)c2cc3cccc(C)c3nc21 , thank you.
inactive

Dear all, I need the recorded test outcome for COC(=O)C1C(=O)N2CCCSC2=C(C#N)C1c1cccs1 (stereo not given) , thank you.
inactive

Dear all, I need the recorded test outcome for COC(=O)/C(C#N)=C/c1c(N2CCN(Cc3ccc4c(c3)OCO4)CC2)nc2c(C)cccn2c1=O , thank you.
inactive

Dear all, I need the recorded test outcome for CCCC(=O)NC(c1ccc(C(C)C)cc1)c1ccc2cccnc2c1O (stereo not given) , thank you.
active

Dear all, I need the recorded test outcome for Cc1ccc(Nc2c(-c3ccccn3)nc3ccc(C)cn23)cc1 , thank you.
active

Dear all, I need the recorded test outcome for CCC1CCCCN1Cc1c(O)ccc2c(=O)c(-c3ccccc3OC)coc12 (stereo not given) , thank you.
inactive

Dear all, I need the recorded test outcome for O=C(c1ccc(F)cc1)N(Cc1cccs1)C1CCS(=O)(=O)C1 (stereo not given) , thank you.
inactive

Dear all, I need the recorded test outcome for O=C(Nc1ncc2c(n1)CC(c1ccco1)CC2=O)c1ccccc1 (stereo not given) , thank you.
inactive

Dear all, I need the recorded test outcome for Cc1cc(/C=N/N2CCN(C)CC2)c(C)n1-c1ccc(Cl)cc1 , thank you.
inactive

Dear all, I need the recorded test outcome for O=C(NC(=S)Nc1ccccn1)c1cc(-c2ccccc2)nc2ccccc12 , thank you.
inactive

Dear all, I need the recorded test outcome for [O-]/C(=C(\C(=S)Nc1cccc2ccccc12)[n+]1ccccc1)c1cccs1 , thank you.
inactive

Dear all, I need the recorded test outcome for O=C(Nc1cccc(-c2cn3ccccc3n2)c1)C1CC1 , thank you.
inactive

Dear all, I need the recorded test outcome for CC(=O)Nc1ccc(Nc2nc(C)c([N+](=O)[O-])c(Nc3ccc(NC(C)=O)cc3)n2)cc1 , thank you.
inactive

Dear all, I need the recorded test outcome for Cc1cc(=O)[nH]c(SCC(=O)Nc2nonc2C)n1 , thank you.
inactive

Dear all, I need the recorded test outcome for Cc1ccc(Nc2c(-c3ccccn3)nc3cc(C)ccn23)cc1 , thank you.
active

###

system under test: Hypoxia-inducible factor 1-alpha (Homo sapiens) (UniProt Q16665)
Sequence (Q16665 whole entry, looked up): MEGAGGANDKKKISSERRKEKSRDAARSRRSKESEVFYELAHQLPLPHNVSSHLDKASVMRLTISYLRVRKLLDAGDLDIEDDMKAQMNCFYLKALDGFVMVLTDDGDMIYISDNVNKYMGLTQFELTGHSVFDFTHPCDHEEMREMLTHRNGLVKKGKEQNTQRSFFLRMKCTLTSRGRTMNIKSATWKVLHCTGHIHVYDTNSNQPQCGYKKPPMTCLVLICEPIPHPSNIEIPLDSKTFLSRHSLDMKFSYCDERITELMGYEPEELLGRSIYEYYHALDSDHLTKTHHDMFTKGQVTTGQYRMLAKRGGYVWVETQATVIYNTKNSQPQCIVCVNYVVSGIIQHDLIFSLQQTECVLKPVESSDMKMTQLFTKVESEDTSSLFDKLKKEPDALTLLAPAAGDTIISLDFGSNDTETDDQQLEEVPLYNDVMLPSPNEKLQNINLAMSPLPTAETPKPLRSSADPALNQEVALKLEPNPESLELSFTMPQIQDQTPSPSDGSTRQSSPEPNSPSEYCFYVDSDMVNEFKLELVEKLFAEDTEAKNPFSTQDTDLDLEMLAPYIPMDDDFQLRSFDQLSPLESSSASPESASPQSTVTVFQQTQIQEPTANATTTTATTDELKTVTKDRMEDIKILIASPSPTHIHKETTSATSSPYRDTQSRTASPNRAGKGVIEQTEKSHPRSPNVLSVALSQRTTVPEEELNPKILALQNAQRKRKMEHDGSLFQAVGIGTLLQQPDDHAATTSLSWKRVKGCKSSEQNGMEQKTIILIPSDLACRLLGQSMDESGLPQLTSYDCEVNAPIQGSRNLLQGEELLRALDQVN
method description: activators of HIF1alpha nuclear accumulation, confirmation, imaging, fluorescence, U2OS GFP-HIF1alpha (AID 434951)
conditions used: U2OS GFP-HIF1alpha nuclear intensity, high-content imaging
Active and inactive are the calls of the source.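 Rule for the calls: active = a fitted half-maximal concentration EC50 for the rise in nuclear signal no higher than ten times the top dose tested; inconclusive = flat fit with activity between 30% and 70%, or unusable fit; inactive = EC50 beyond ten times the top dose.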
# valid calls are true (active), false (inactive); nothing else

Reference set (5 entries):
[[record]]
molecule = "COc1ccc(C(NC(=O)C(C)C)c2ccc3cccnc3c2O)cc1 (stereo unspecified)"
category = "true"

[[record]]
molecule = "O=C1NC(=O)/C(=C/c2ccc(OS(=O)(=O)c3ccc(F)cc3F)cc2)N1"
category = "false"

[[record]]
molecule = "Cn1nnc2cc(C(=O)N3CCC(c4ccccc4)C3)ccc21 (stereo unspecified)"
category = "false"

[[record]]
molecule = "COc1ccccc1-c1cc(C(F)(F)F)nc(S(=O)(=O)CCCC(=O)N2CCCCC2C)n1 (stereo unspecified)"
category = "false"

[[record]]
molecule = "CCc1cnccc1CCC(=O)Nc1ccccc1C"
category = "false"


Dear all, I need the recorded test outcome for N#Cc1ccccc1OCCCN1CCC(Cc2ccccc2)CC1 , thank you.
false

Dear all, I need the recorded test outcome for CC(C)[C@H](NC(=O)c1ccco1)C(=O)OCc1cc(=O)n2c(n1)sc1ccccc12 , thank you.
false

Dear all, I need the recorded test outcome for CCCn1c2ccccc2c2cnn(CC(=O)NC3CCCC(C)C3C)c(=O)c21 (stereo unspecified) , thank you.
true

Dear all, I need the recorded test outcome for CC(=O)c1cccc(NS(=O)(=O)c2ccc(-c3cc(C)no3)s2)c1 , thank you.
false

Dear all, I need the recorded test outcome for CCN(CC)c1ccc(/C=N/NC(=O)c2nnn(-c3nonc3N)c2C(C)C)c(O)c1 , thank you.
true

Dear all, I need the recorded test outcome for COc1cccc(/C=N/Nc2ncnc3scc(-c4ccccc4)c23)c1O , thank you.
true

Dear all, I need the recorded test outcome for O=C(c1cc2ccccc2o1)N1CCN(Cc2ccc3c(c2)OCO3)CC1 , thank you.
false

Dear all, I need the recorded test outcome for Cc1ccc(CSc2nnc(CCCCCNC(=O)OC(C)(C)C)o2)cc1 , thank you.
false

Dear all, I need the recorded test outcome for CC(=O)c1ccc(C(=O)N2CCCC(Nc3ccc(C(C)C)cc3)C2)s1 (stereo unspecified) , thank you.
false

Dear all, I need the recorded test outcome for Cc1ccc(-c2nc(CS(=O)(=O)CC(=O)NC3CCC(C)CC3)c(C)o2)cc1 (stereo unspecified) , thank you.
false

Dear all, I need the recorded test outcome for CCCCCC(=O)NNC(=S)NC(=O)c1cccc([N+](=O)[O-])c1 , thank you.
false

Dear all, I need the recorded test outcome for CC(C)C(=O)NC(c1ccc(Cl)cc1Cl)c1ccc2cccnc2c1O (stereo unspecified) , thank you.
true

Dear all, I need the recorded test outcome for O=C(NC(=S)Nc1ccccn1)c1cccc([N+](=O)[O-])c1 , thank you.
false

Dear all, I need the recorded test outcome for Cc1cc(NC(c2cccnc2)c2ccc3cccnc3c2O)no1 (stereo unspecified) , thank you.
true

Dear all, I need the recorded test outcome for Cc1cccc(NC(=O)C2CC(=O)NC(Nc3nc4ccccc4s3)=N2)c1 (stereo unspecified) , thank you.
false

###

system under test: Hypoxia-inducible factor 1-alpha (Homo sapiens) (UniProt Q16665)
method description: activators of HIF1alpha nuclear accumulation, confirmation, imaging, fluorescence, U2OS GFP-HIF1alpha (AID 434951)
conditions used: U2OS GFP-HIF1alpha nuclear intensity, high-content imaging
Calls of active or inactive are those of the source.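 The calls were made as follows: active = a fitted half-maximal concentration EC50 for the rise in nuclear signal no higher than ten times the top dose tested; inconclusive = flat fit with activity between 30% and 70%, or unusable fit; inactive = EC50 beyond ten times the top dose.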
# valid calls are active, inactive; nothing else

Reference set (5 entries):
[[record]]
compound = "N/C(=N\\OC(=O)c1cccs1)c1ccc(Cl)cc1"
category = "inactive"

[[record]]
compound = "COc1ccccc1-c1cc(C(F)(F)F)nc(S(=O)(=O)CCCC(=O)N2CCOCC2)n1"
category = "inactive"

[[record]]
compound = "COc1ccc(C2NC(=S)NC3=C2CCCC3=C2SCCS2)cc1 (stereo not drawn)"
category = "active"

[[record]]
compound = "FC(F)Oc1ccc(NC(=S)Nc2ccc3cn[nH]c3c2)cc1"
category = "inactive"

[[record]]
compound = "COCCn1c(=NC(=O)c2ccc(S(=O)(=O)N3CCCc4ccccc43)cc2)sc2cc(S(C)(=O)=O)ccc21"
category = "inactive"


Dear all, I need the recorded test outcome for Cc1ccc(N(C)S(=O)(=O)c2ccc(-c3cc(C)no3)s2)cc1 , thank you.
inactive

Dear all, I need the recorded test outcome for Cc1ccc(NC(=O)CSc2ncc3ccccn23)cc1 , thank you.
inactive

Dear all, I need the recorded test outcome for Cc1occc1C(=O)N/N=C/c1c(O)ccc2ccccc12 , thank you.
active

Dear all, I need the recorded test outcome for Cc1ccc(S(=O)(=O)N2CCN(c3ccccn3)CC2)cc1 , thank you.
inactive

Dear all, I need the recorded test outcome for CCOC(=O)c1c(NC(=O)CCC(=O)O)sc2c1CCCCC2 , thank you.
inactive

Dear all, I need the recorded test outcome for Cn1c(NN=O)nc2ccccc21 , thank you.
active

Dear all, I need the recorded test outcome for C=CCn1c(N2CCCCCC2)nc2c1c(=O)[nH]c(=O)n2C , thank you.
inactive

Dear all, I need the recorded test outcome for COc1ccccc1-c1cc(C(F)(F)F)nc(S(C)(=O)=O)n1 , thank you.
active

###

system under test: Hypoxia-inducible factor 1-alpha (Homo sapiens)
method description: activators of HIF1alpha nuclear accumulation, confirmation, imaging, fluorescence, U2OS GFP-HIF1alpha (AID 434951)
conditions used: U2OS GFP-HIF1alpha nuclear intensity, high-content imaging
The source made the active and inactive calls.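 Rule for the calls: active = a fitted half-maximal concentration EC50 for the rise in nuclear signal no higher than ten times the top dose tested; inconclusive = flat fit with activity between 30% and 70%, or unusable fit; inactive = EC50 beyond ten times the top dose.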
# valid calls are active, inactive; nothing else

[[record]]
entry_smiles = "Cc1c(/C=N/NC(N)=O)c2ccccn2c1C(=O)c1ccncc1"
category = "inactive"


Dear all, I need the recorded test outcome for C(=N\Nc1nc2ccccc2[nH]1)/c1cccc2nccnc12 , thank you.
active

Dear all, I need the recorded test outcome for O=C(c1cccnc1)c1cc2ccccc2[nH]1 , thank you.
inactive

Dear all, I need the recorded test outcome for O=[N+]([O-])c1ccc(OCCCCN2CCCCC2)cc1 , thank you.
inactive

Dear all, I need the recorded test outcome for Cc1ccccc1Nc1c(-c2ccccn2)nc2ccccn12 , thank you.
active

Dear all, I need the recorded test outcome for COC(=O)c1ccc(CSc2nc3c(c(=O)n2-c2ccc(F)cc2)SCC3)o1 , thank you.
inactive

Provenance of the data: PubChem BioAssay AID434951
